Every entry's value here was drawn from the supplement of paper PMC12855868.

B1: library; numbered along this chain (parent)
chain: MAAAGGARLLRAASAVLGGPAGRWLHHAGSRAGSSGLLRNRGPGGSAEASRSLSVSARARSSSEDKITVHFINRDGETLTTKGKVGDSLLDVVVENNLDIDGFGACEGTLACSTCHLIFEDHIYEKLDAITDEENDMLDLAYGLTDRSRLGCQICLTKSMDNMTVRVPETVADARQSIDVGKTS

Variants of: B1
Experiment: scaled log2 fold change in cell abundance, elesclomol vs control (0 = silent mean, 1 = nonsense mean) (scaled log2 ratio); higher = higher viability under elesclomol (loss of FDX1 cuproptosis function);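 note: variant abundance is its share of total variant reads in each endpoint sample, from next-generation sequencing of the integrated ORF PCR-amplified out of genomic DNA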
Conditions: with ABC1 FDX1 KO; elesclomol 5 nM; glucose 10 mM; 14 days
observable: scaled log2 fold change

mutationNotation	observable	testResult
V93K	scaled log2 fold change	-0.498
L90F	scaled log2 fold change	0.00898
T80L	scaled log2 fold change	-0.289
M137K	scaled log2 fold change	-0.121
E48C	scaled log2 fold change	0.731
